Where a name gives a salt, the structure may show the parent alone.
Values of IC50 reported for DPP-IX (Homo sapiens (Human), UniProt Q86TI2) appear below.
readoutLabel: IC50

[[record]]
compound = "N[C@@H](CC(=O)N1CCc2c(nc(C(F)(F)F)nc2C(F)(F)F)C1)CN1C(=O)CCC(F)(F)[C@@H]1O [Example 2, hydrochloride]"
systemtested = "DPP-IX (Homo sapiens (Human), UniProt Q86TI2)"
readoutlabel = "IC50"
measuredvalue = "> 400 µM"

[[record]]
compound = "N[C@@H](CC(=O)N1CCc2c(nc(C3CCC3)nc2C(F)(F)F)C1)CN1C(=O)CCC(F)(F)C1O (stereo partly shown) [Example 5, hydrochloride]"
systemtested = "DPP-IX (Homo sapiens (Human), UniProt Q86TI2)"
readoutlabel = "IC50"
measuredvalue = "> 400 µM"

[[record]]
compound = "N[C@@H](CC(=O)N1CCc2c(nc(-c3ccco3)nc2C(F)(F)F)C1)CN1C(=O)CCC(F)(F)[C@@H]1O [Example 8, hydrochloride]"
systemtested = "DPP-IX (Homo sapiens (Human), UniProt Q86TI2)"
readoutlabel = "IC50"
measuredvalue = "> 130 µM"

[[record]]
compound = "COCCc1nc2c(c(C(F)(F)F)n1)CCN(C(=O)C[C@H](N)CN1C(=O)CCC(F)(F)[C@@H]1O)C2 [Example 10, hydrochloride]"
systemtested = "DPP-IX (Homo sapiens (Human), UniProt Q86TI2)"
readoutlabel = "IC50"
measuredvalue = "> 210 µM"

